- System: Proteasome Macropain subunit MB1 (Homo sapiens) (UniProt P28074)
- Sequence (P28074 whole entry): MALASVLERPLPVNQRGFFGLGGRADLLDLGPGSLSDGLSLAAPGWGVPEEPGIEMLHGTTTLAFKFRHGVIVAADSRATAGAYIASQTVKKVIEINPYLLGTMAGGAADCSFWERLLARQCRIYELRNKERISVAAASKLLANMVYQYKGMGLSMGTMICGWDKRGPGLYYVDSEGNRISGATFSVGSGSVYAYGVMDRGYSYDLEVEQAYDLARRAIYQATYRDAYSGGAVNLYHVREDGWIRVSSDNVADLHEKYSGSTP
- Run Description: Inhibition of chymotrypsin-like activity of human 20S proteasome at 50 uM using Suc-Leu-Leu-Val-Tyr-AMC as substrate measured for 10 mins by fluorescence assay relative to control
Non-standard residues stand in square brackets, D forms with d. Residues, ends and D or L forms follow the SMILES beside them. ξ: configuration not given here. *: point of attachment. ξY = NC(Cc1ccc(O)cc1)C(=O)O; Cbz = O=C(OCc1ccccc1)*
Experimental Endpoint: inhibition (%)
Use % as the unit, but write only the number.

Known results for molecules:
- O=C(NC(Cc1ccc(O)cc1)C(=O)N[C@@H](Cc1ccccc1)C(=O)O)OCc1ccccc1 (some centres undefined) (Cbz-[ξY]-Phe-OH): 7
- CC(C)C[C@H](NC(=O)c1cnc2ccccc2n1)C(=O)O: 34
- COC(=O)[C@H](CC(C)C)NC(=O)[C@H](CC(N)=O)NC(=O)[C@@H](NC(=O)OCc1ccccc1)C(C)C (Cbz-Val-Asn-Leu-OMe): 15

Field: next molecule
Problem: Fill in the blank: the reported inhibition of CC(=O)NC(Cc1ccccc1)C(=O)Nc1ccc(S(N)(=O)=O)cc1 (centres undefined) is ____.
Result: 34

Sourced from ChEMBL document CHEMBL3860032
